Data provenance is the RNAGym collection of RNA variant scans (doi:10.7554/elife.90254).

B1: LINE1-mini (parent)
chain: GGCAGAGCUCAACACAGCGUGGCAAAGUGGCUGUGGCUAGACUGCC

Variants of: B1
Test: self-cleavage, relative activity (ratio to wild type); higher = more cleavage; in vitro, sequencing; the parent is a self-cleaving ribozyme
Assign rule met to entries whose self-cleavage meets or exceeds 0.1; assign rule not met to the rest.

[Q] Could you verify whether the entry GGCAGAACUCAACACAGCGUGGCAAAGUGGCUGUGGCUUGACUGCC shows self-cleavage of no less than 0.1?
[A] rule met

[Q] Also GGCAAAGCUCAACACAUCGUGGCAAAGUGGCUGUGGCUAGACUGCC ?
[A] rule met

[Q] Also GGCAGAGCUCACCACAGCGUGGCUAAGUGGCUGUGGCUAGACUGCC ?
[A] rule not met

[Q] Also GGCAGAGCUCAACACAGCGUUGCAAAGUGGCUGAGGCUAGACUGCC ?
[A] rule met

[Q] Also GGCAGAGUUCAACUCAGCGUGGCAAAGUGGCUGUGGCUAGACUGCC ?
[A] rule not met

[Q] Also GGCAGAGCUCACCACAGCGAGGCAAAGUGGCUGUGGCUAGACUGCC ?
[A] rule not met

[Q] Also GGCAGAGCUCAACACAGCAUCGCAAAGUGGCUGUGGCUAGACUGCC ?
[A] rule met

[Q] Also GGCAGAGCUCAACACAGCGUGGCUAAGUAGCUGUGGCUAGACUGCC ?
[A] rule met

[Q] Also GGCAGACCUCAACACAGCGUGGCAAUGUGGCUGUGGCUAGACUGCC ?
[A] rule met

[Q] Also GGCAGAACUCAACACAGCGUGGCAAAGUGGCUGUGGCUAGACUCCC ?
[A] rule met

[Q] Also GGCAGAGCUCAACACAGCGUGGCAAAGUGGCUGUGGCUAAACUGUC ?
[A] rule met

[Q] Also AGCAGAGCUCAACACAGCGUGGCAAAGUGGCUGUGGCUAGACUGCG ?
[A] rule met

[Q] Also GGCAGAGCUCAAUACAGCGUGGCAAAGUGGCUGUGGCUAGCCUGCC ?
[A] rule not met

[Q] Also GGCAGAGCUCAACACAACGCGGCAAAGUGGCUGUGGCUAGACUGCC ?
[A] rule met

[Q] Also UGCAGAGCUCAUCACAGCGUGGCAAAGUGGCUGUGGCUAGACUGCC ?
[A] rule not met

[Q] Also GGCAGAGCUCAACACAACGUCGCAAAGUGGCUGUGGCUAGACUGCC ?
[A] rule met

[Q] Also GGCAGAGCUCAGCACAGCGUGGCAAAGUGGCUGUGACUAGACUGCC ?
[A] rule not met

[Q] Also GGCAGAGCUCAACACAGCGUGGCUAAGUGGCUGUGGCUAGACAGCC ?
[A] rule met

[Q] Also UGCAGAGCGCAACACAGCGUGGCAAAGUGGCUGUGGCUAGACUGCC ?
[A] rule not met

[Q] Also GGCAGAGCUCAACAAAGCUUGGCAAAGUGGCUGUGGCUAGACUGCC ?
[A] rule not met
